System: HL-60(TB) leukemia
measurement.notes: NCI-60 one-dose screen, 48 h
protocol.conditions: 10 µM unless noted
About 83,000 compounds went through this panel and 20% of them were active in at least one assay; those are over-represented in the sample as a whole. The source made the active and inactive calls. Rule for the calls: active = growth percent below 10; inactive = the rest.
Your answer must be one of the following: active, inactive

Input line: What did this assay record as the result for `COc1cc(-c2nc3cc(Cl)c(Cl)cc3[nH]2)ccc1OCc1nnc(-c2ccc(Br)cc2)o1` ?
Output line: active

###

Test system: HL-60(TB) leukemia
measurement.notes: NCI-60 one-dose screen, 48 h (100 = growth as untreated, 0 = no growth, -100 = all killed)
protocol.conditions: 10 µM unless noted
Compounds without any hit were thinned out: in the full panel of roughly 83,000, 20% have a hit. The source made the active and inactive calls. How the source made its calls: active means growth percent below 10; inactive means the rest.
This section presents compounds with their documented growth values.

1. CCN(CC)C(=O)N/C(N)=N/c1nc2ccccc2s1: 52.1% (inactive)
2. O=C(N=Nc1c(O)[nH]c2ccc(Cl)cc12)c1ccc2nc(-c3ccccc3)[nH]c2c1: 72.5% (inactive)
3. Nc1nnc(-c2c[nH]c3ccc(Br)cc23)c(-c2c[nH]c3ncc(Br)cc23)n1: 23.1% (inactive)

Input line: Can you look up growth on HL-60(TB) leukemia for `FC(F)(F)c1cc2c(Cl)ncnc2n1CCC1CCOCC1` ?
Output line: -59.6% (active)

Input line: And then COc1cc2c(c(OC)c1OC)C(=O)CC(c1cccc(NC(=O)c3cc(N)ccc3Cl)c1)O2 (stereo not given) , what is it?
Output line: 52.2% (inactive)

###

This section presents compounds with their documented growth values.
System: MDA-MB-468 breast
measurement.notes: NCI-60 one-dose screen, 48 h (100 = growth as untreated, 0 = no growth, -100 = all killed)
protocol.conditions: 10 µM unless noted
Compounds without any hit were thinned out: in the full panel of roughly 83,000, 20% have a hit.
Express the result in % but write the number alone.

1) NC(=O)Oc1cc(OC(N)=O)cc(N(CCCl)CCCl)c1: 29.9
2) CC1=C(C)C(=O)O[C@@H]([C@](C)(O)[C@]2(O)CC[C@@]3(O)[C@@H]4C[C@H]5O[C@]56CC=CC(=O)[C@]6(C)[C@H]4CC[C@]23C)C1: -26.3
3) CC(=O)C(N)Cc1ccccc1 (centres undefined): 97
4) C=C1C(=O)O[C@H]2[C@H]1CC/C(COC(=O)C(=O)c1cn(Cc3ccccc3)c3ccccc13)=C\CC[C@@]1(C)O[C@@H]21: -60.5

Input line: Would you mind telling me what growth value was observed for `C/C(Cc1ccc(Cl)cc1)=C(\c1ccc(OCCN2CCOCC2)cc1)c1ccc(OC(=O)Cc2ccccc2)cc1` ?
Output line: 88.7

Input line: And then `Cc1ccc(N2CCN(CCC#N)CC2)cc1` , what is it?
Output line: 105

Input line: And then `ClCCN(CCCl)c1ccc(/C=C\c2ccnc3ccccc23)cc1` , what is it?
Output line: 46.1

Input line: And then `Cc1cc(N(CCCl)CCCl)ccc1C=Nc1ccc(-c2csc(-c3ccccc3)n2)cc1` , what is it?
Output line: 3.69

Input line: And then `ClCCN(CCCl)Cc1ccc(Nc2ccnc3cc(Cl)ccc23)cc1` , what is it?
Output line: -0.105

###

Test system: A549/ATCC NSCLC
measurement.notes: NCI-60 one-dose screen, 48 h
protocol.conditions: 10 µM
The panel holds about 83,000 compounds, 20% with a hit somewhere; the sample as a whole holds those more often. The source made the active and inactive calls. Rule for the calls: active = growth percent below 10; inactive = the rest.
Your answer must be one of the following: active, inactive

Check out these entries, answers already filled in.
1. CC(C)N=C([Se])NC(=O)c1cccs1: inactive
2. CN(C)CCc1cn(C2CCC2)c2cccc(O)c12: inactive
3. CC(C)N=C([Se])NC(=O)c1ccccc1: active
4. CC[C@]12C=CCN3CC[C@@]4(c5ccc(OC)cc5N(C)[C@H]4[C@@](O)(C(=O)OC)[C@@H]1OC(=O)CCC[P+](C1CCCCC1)(C1CCCCC1)C1CCCCC1)[C@@H]32: inactive
5. O=C(/C=C/c1ccccc1)c1nc2ccccc2n1Cc1ccc(F)cc1: inactive

Input line: What did this assay record as the result for `CC[C@]12C=CCN3CC[C@@]4(c5ccc(OC)cc5N(C)[C@H]4[C@@](O)(C(=O)OC)[C@@H]1OC(=O)CCC[P+](c1ccc(C)cc1)(c1ccc(C)cc1)c1ccc(C)cc1)[C@@H]32` ?
Output line: active

Input line: And then `CC1=C(CCC=NNC(N)=O)C2=C(C)C3(CC3)[C@@](C)(O)C(=O)C2=C1` , what is it?
Output line: active

Input line: And then `C[C@H]1[C@H](OC(=O)CCC(=O)N(CCCc2cn(-c3ccc(CN4CCOCC4)cc3)nn2)CCNc2ccnc3cc(Cl)ccc23)O[C@@H]2OC3(C)CC[C@H]4[C@H](C)CC[C@@H]1[C@@]24OO3` , what is it?
Output line: inactive
